Cited source for all entries: patent US5760036A

tested system: HIV protease (Human immunodeficiency virus type 1 group M subtype B, UniProt P04585)
Construct: and purified protease
measurement protocol: HIV Protease Assay
Assay type: biochemical
experimental setup: pH 5.5, 10 μM inhibitor, 4% DMSO, 450 μM substrate, pH 5.5, 30 minutes at 37° C., RP-HPLC; read-out: HIV Protease % Inhibition at 10 μM
measurement name: inhibition at 10 µM (%)

Solved entries (count: 3):
compound | inhibition at 10 µM (%)
CC(C)(C)OC(=O)N[C@@H](Cc1ccccc1)[C@H](O)CNC[C@@H](O)[C@H](Cc1ccccc1)NC(=O)[C@@H]1CCCN1C(=O)OCc1ccccc1 | 47
CC(C)(C)OC(=O)N[C@@H](Cc1ccccc1)[C@H](O)CNC[C@@H](O)[C@H](Cc1ccccc1)NC(=O)OC1(C)CCCC1 | 100
CC(C)[C@H](NC(=O)N(C)Cc1nc2ccccc2[nH]1)C(=O)N[C@@H](Cc1ccccc1)[C@H](O)CNC[C@@H](O)[C@H](Cc1ccccc1)NC(=O)OC(C)(C)C (relative stereo) | 100

I. COC(=O)N[C@H](C(=O)N[C@@H](Cc1ccccc1)[C@H](O)CNC[C@@H](O)[C@H](Cc1ccccc1)NC(=O)OC(C)(C)C)C(C)(C)C (relative stereo)
II. CC(C)(C)OC(=O)N[C@@H](Cc1ccccc1)[C@H](O)CNC[C@@H](O)[C@H](Cc1ccccc1)NC(=O)C1c2ccccc2CN1C=O (some centres unmarked)
For the pair I and II , which entry has the numerically smaller recorded inhibition at 10 µM? Please reply using the label of the selected record.
II
